System: COLO 205 colon
Assay method text: NCI tumour cell line growth inhibition, 48 h
Reported property: TGI

Use these answered entries as a reference point.
CC([C@H]1CCC2C3CCC4C(=O)C(NC=O)=CC[C@]4(C)C3CC[C@@]21C)N(C)C (stereo partly drawn) : 3.4 µM
C/C(=N\NC(=S)N/N=C(\C)c1ccccn1)c1ccccn1 : > 100 µM
N#CCCN(CCN(CCN(C(=O)Nc1ccccc1)c1ccccc1)C(=O)Nc1ccccc1)C(=O)Nc1ccccc1 : > 100 µM
O=C1/C(=C/c2ccc(F)cc2)CN(Cc2cn(CCNc3ccnc4cc(Cl)ccc34)nn2)C/C1=C\c1ccc(F)cc1 : 2.88 µM
NNC(=S)N/N=C(\c1nc2ccc(Cl)cc2[nH]c1=O)C(O)c1ccc(Cl)cc1Cl (stereo not drawn) : > 100 µM
O=C(NC12CC3CC(CC(C3)C1)C2)n1cnc2cncnc21 : 37.4 µM

Would you mind giving TGI for every molecule in the list below?
1. Cc1ccc(N=c2oc3c(ccc4ccccc43)nc2Nc2ccc(C)cc2)cc1
2. O=C1CCCn2c3ccccc3c3ccnc1c32

## Result
["> 100 µM", "> 100 µM"]

###

Test system: TK-10 renal
Assay method text: NCI tumour cell line growth inhibition, 48 h
Where a SMILES comes first, the peptide text is derived from it. [ ]: non-standard residue; d: D form. The star is where a group is joined. ξ: configuration not given here. 4Abz = Nc1ccc(C(=O)O)cc1; Boc = CC(C)(C)OC(=O)*; ξL = CC(C)CC(N)C(=O)O; OBn = c1ccc(CO*)cc1; Bn = c1ccc(C*)cc1; NHOH = ON*
Give measured TGI for each item. Keep answers brief.

Batch of 5 compounds: report TGI for each.
1. CCSc1sc(-c2ccc(C)cc2)nc1[P+](c1ccccc1)(c1ccccc1)c1ccccc1
2. Nc1nc(-c2ccccc2)cc(-c2ccc(F)cc2)c1-c1ccc(Cl)cc1
3. O=C(NC12CC3CC(CC(C3)C1)C2)n1cnc2cncnc21
4. NC1=CN2c3ccccc3N(CC(=O)N3CCOCC3)C2C=C1 (configuration not stated)
5. O=C(O)c1cc(/C=C/c2ccc(O)c(O)c2)ccc1O

## Result
["1.48 µM", "> 100 µM", "> 100 µM", "> 100 µM", "> 100 µM"]

Hi team, please reply with TGI for each item in this list.
1. COc1ccc2c(c1)Cc1cc(N=[N+]([O-])c3ccc4c(c3)Cc3cc(OC)ccc3-4)ccc1-2
2. N=C(N)c1ccc(-c2ccc(-c3ccco3)o2)cc1
3. CCCCC#Cc1c(I)n(C2OC(CO[Si](C)(C)C(C)(C)C)C3OC(C)(C)OC32)c(=O)[nH]c1=O (configuration not stated)
4. CS(=O)(=O)c1nc(-c2cc3c(c(S(C)(=O)=O)n2)CCC3)cc2c1CCC2
5. c1ccc(C[P+]2(c3ccccc3)CCCCC2)cc1

## Result
> 100 µM
15.6 µM
16.8 µM
> 100 µM
> 100 µM

Working through the 5 compounds below one at a time, give TGI for each.
1. CC(C)CC(NC(=O)[C@@H]1CCCN1C(=O)CNC(=O)c1ccc(N)cc1)C(=O)N[C@H](C)C(=O)NO (some centres not stated) (H-[4Abz]GP[ξL][dA]-{NHOH})
2. Cc1cc(C)cc(NC(=O)CCC(=O)C2CCC/C2=N\NC(=O)C(=O)NN)c1 (configuration not stated)
3. Oc1ccc(Br)cc1CN1CCN(Cc2ccc(Cl)cc2)CC1
4. O=C(O)C(C1NCCS1)N1Cc2ccccc2C1 (configuration not stated)
5. Cc1ccc(N=c2oc3c(ccc4ccccc43)nc2Nc2ccc(C)cc2)cc1

## Result
> 100 µM
> 100 µM
> 100 µM
> 100 µM
> 100 µM

# return TGI for each item in the list
1. COc1cccc(-n2cnc3c(N/N=C/c4ccncc4)ncnc32)c1
2. COc1ccc(OC)c(-c2cc(-c3ccc(Cl)cc3)nn2-c2ccc(S(N)(=O)=O)cc2)c1
3. COc1ccc(CNCCN2C(=O)c3ccc4c5c(ccc(c35)C2=O)C(=O)N(CCNCc2ccc(OC)cc2)C4=O)cc1
4. CC(C)CC(NC(=O)C(CCC(=O)OCc1ccccc1)NC(=O)OC(C)(C)C)C(=O)NC(COCc1ccccc1)C(=O)NC(Cc1ccccc1)C(=O)O (configuration not stated) (Boc-E(OBn)LS(Bn)F-OH; configuration not given here)
5. CCCc1c(OC)c(O)c2c(=O)cc(OC)c3c4c(OC)cc(=O)c5c(O)c(OC)c(CCC)c(c1c23)c54
6. COC(=O)CC[C@@H](NC(=O)C(C)NC(=O)COC1C(O)C(COC(=O)CCCCCCCCCCNC(=O)c2ccc([N+](=O)[O-])c3[nH]c4cc(Br)ccc4c(=O)c23)OC(OCc2ccccc2)C1NC(C)=O)C(N)=O (some centres not stated)
7. CCCCc1c2c(nc3c1CCc1cc(C=O)c(N)nc1-3)/C(=C/c1ccccc1)CCC2

## Result
["> 25 µM", "22.7 µM", "0.754 µM", "> 100 µM", "> 100 µM", "> 100 µM", "> 100 µM"]

###

Exercise: state measured TGI for each of the molecules provided.
Tested on: EKVX NSCLC
Assay method text: NCI tumour cell line growth inhibition, 48 h
Give bare numbers, in µM.

Some solved cases for reference:
CC([C@H]1CCC2C3CCC4C(=O)C(NC=O)=CC[C@]4(C)C3CC[C@@]21C)N(C)C (some centres undefined) : 50.7
Brc1ccc2c(c1)[C@H]1CCc3c([nH]c4ccccc34)[C@H]1N2 : 22.6

I'm hoping you can list TGI for every molecule here, please.
1. COC1=CC(=O)c2c(O)c3c(c(O)c2C1=O)CC(C)(O)OC3 (centres undefined)
2. C(=C/c1ccc2nc(-c3ccc(/C=C/C=N/NC4=NCCCN4)cc3)cn2c1)/C=N/NC1=NCCCN1
3. CC(C)CCC[C@@H](C)C1CCC2[C@@H]3CC=C4C[C@@H](OC(=O)CCC(=O)NCC[N+](C)(C)CCCS(=O)(=O)[O-])CC[C@]4(C)C3CC[C@@]21C (some centres undefined)
4. O=C1C=Cc2cc3ccccc3c3cccc1c23

## Result
1: 18.7; 2: 35.7; 3: 79.5; 4: 8.92

###

System: HOP-92 NSCLC
Assay method text: NCI tumour cell line growth inhibition, 48 h
Reported property: TGI

C/C(=N\NC(=S)N/N=C(\C)c1ccccn1)c1ccccn1 : > 100 µM
COc1ccc(-c2cc(-c3ccco3)c(C#N)c(=O)n2C2OC(OC(=O)c3ccccc3)C(OC(=O)c3ccccc3)C2OC(=O)c2ccccc2)cc1 (stereo not drawn) : 54.5 µM
COc1ccc(/C(C#N)=C/c2nc3c(N4CCOCC4)nc(Cl)nc3n2C)cc1OC : 2.94 µM

// batch mode: one TGI value per listed entry
1. O=C(Nc1ccc(Cl)cc1Cl)c1c/c(=N\O)c2ccc(O)cc2o1
2. Cn1c(=O)c(C2c3ccccc3Oc3c2c(=O)n(C)c2ccccc32)c(O)c2ccccc21 (stereo not drawn)
3. OCCOCn1nc(-c2ccccc2)nc1-c1cnccn1
4. C/C(=C/CC[C@](C)(OC1OC(CO)C(O)C(O)C1OC1OC(C)C(O)C(O)C1O)[C@H]1CC[C@]2(C)[C@@H]1CC[C@@H]1[C@@]3(C)CC[C@H](O)C(C)(C)[C@@H]3C[C@H](O)[C@]12C)CO (stereo partly drawn)
5. C(=C/c1ccc2nc(-c3ccc(/C=C/C=N/NC4=NCCCN4)cc3)cn2c1)/C=N/NC1=NCCCN1

## Result
1: > 100 µM; 2: > 100 µM; 3: > 100 µM; 4: > 100 µM; 5: > 100 µM

###

Test system: OVCAR-3 ovarian
Assay method text: NCI tumour cell line growth inhibition, 48 h
Assignment: determine reported TGI for the given compounds.

COc1ccc(C2CC(c3cccc(Nc4ccnc5cc(Cl)ccc45)c3)=NN2c2ccccc2)cc1 (stereo not given) : > 100 µM
O=C1/C(=C/c2ccc(F)cc2)CN(Cc2cn(CCNc3ccnc4cc(Cl)ccc34)nn2)C/C1=C\c1ccc(F)cc1 : 2.5 µM
NC(=O)c1ncn(C2CCC(CP(=O)(O)O)C2)c1N (stereo not given) : > 100 µM
COc1cc(C2CC(c3ccc(C)cc3)=NN2C(C)=O)ccc1Oc1ccnc2cc(Cl)ccc12 (stereo not given) : > 100 µM
O=C(O)/C=C/C(=O)Nc1cccc2c1-c1ccccc1C2=O : 5.78 µM
O=C(OCc1ccccc1[N+](=O)[O-])N1c2ccccc2[C@@]23O[C@]24CCC[C@H]3C#C/C=C\C#C[C@H]14 : > 100 µM
COc1cc(C=C2C(=O)OC(C)(C)OC2=O)cc(OC)c1OC : > 100 µM
COc1ccc2c(c1)C(CCN)C(=O)N2 (stereo not given) : > 100 µM
O=C(/C=C/c1ccccc1O)CC(=O)/C=C/c1ccccc1O : 22.3 µM

The record that follows has no TGI shown yet.
## Task What does the record list as TGI for `COc1ccc(/C=N\N2C(=O)Cc3ccccc32)cc1` ?
## Result > 100 µM

Source: PubChem BioAssay (NCI)
